- system: Histone-lysine N-methyltransferase EZH2 (Homo sapiens, UniProt Q15910)
- Sequence (Q15910 whole entry): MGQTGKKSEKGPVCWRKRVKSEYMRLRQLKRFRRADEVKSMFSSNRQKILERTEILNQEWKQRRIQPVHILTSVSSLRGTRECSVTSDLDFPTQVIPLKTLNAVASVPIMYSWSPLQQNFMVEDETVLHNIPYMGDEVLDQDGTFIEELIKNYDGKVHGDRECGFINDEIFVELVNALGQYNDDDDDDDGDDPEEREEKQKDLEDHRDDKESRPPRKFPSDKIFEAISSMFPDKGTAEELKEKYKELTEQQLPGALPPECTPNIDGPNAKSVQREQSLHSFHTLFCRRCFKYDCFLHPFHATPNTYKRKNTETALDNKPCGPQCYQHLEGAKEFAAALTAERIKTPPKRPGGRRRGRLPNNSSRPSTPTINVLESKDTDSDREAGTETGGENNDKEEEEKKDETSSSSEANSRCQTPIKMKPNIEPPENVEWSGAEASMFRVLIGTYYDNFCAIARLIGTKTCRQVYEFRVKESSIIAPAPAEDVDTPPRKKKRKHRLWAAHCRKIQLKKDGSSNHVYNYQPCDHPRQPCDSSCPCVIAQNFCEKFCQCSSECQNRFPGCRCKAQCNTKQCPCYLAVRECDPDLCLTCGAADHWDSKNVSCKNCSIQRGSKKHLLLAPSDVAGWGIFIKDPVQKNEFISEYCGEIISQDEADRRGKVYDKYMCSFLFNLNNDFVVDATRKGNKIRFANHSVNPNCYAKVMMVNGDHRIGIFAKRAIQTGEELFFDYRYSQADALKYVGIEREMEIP
- measurement-description: Inhibition of EZH2 (unknown origin) using SAM as substrate preincubated for 10 mins followed by substrate addition and measured after 4 hrs by HTRF assay
metric: IC50 (nM)
Numbers only, in nM.

Task: Report IC50 for Cc1cc(C)c(CNC(=O)c2cc(-c3ccc(N4CCN(CCNC(=O)C56CC7CC(CC(C7)C5)C6)CC4)nc3)cc3c2cnn3C(C)C)c(=O)[nH]1 please.
Output: 120

====

- system: Histone-lysine N-methyltransferase EZH2 (Homo sapiens)
- measurement-description: Inhibition of wildtype EZH2 (unknown origin)
metric: IC50 (nM)
One number for each entry, in nM.

Task: Reported IC50 for CCN(c1cc(C(=O)NCc2c(C)cc(C)[nH]c2=O)c2cc(CN3CCCCC3)oc2c1)C1CCOCC1 : what is it?
Output: 6.4

====

- system: Histone-lysine N-methyltransferase EZH2 (Homo sapiens)
pIC50: −log10 of the molar value.
metric: pIC50

Task: Give the reported pIC50 for CCCc1cc(C)[nH]c(=O)c1CNC(=O)c1cc(-c2ccc(N3CCN(C(C)C)CC3)nc2)cc2c1cnn2C(C)C (system: Histone-lysine N-methyltransferase EZH2 (Homo sapiens)).
Output: > 8.00

====

- Tested on: ASPC1
- measurement-description: Antiproliferative activity against human ASPC1 cells harboring KRAS G12D mutant assessed as reduction in cell growth measured after 72 hrs by MTT assay
- Type: functional, cell-based
- recorded-conditions: ASPC1, 72 h
metric: IC50 (nM)
Give bare numbers, in nM.

Task: Looking for the measured IC50 of CCN(c1cc(-c2ccc(OCCCCCNC(=O)C[C@@H]3N=C(c4ccc(Cl)cc4)c4c(sc(C)c4C)-n4c(C)nnc43)cc2)cc(C(=O)NCc2c(C)cc(C)[nH]c2=O)c1C)C1CCOCC1 , can you help?
Output: 690
